Target: Kappa-type opioid receptor (Cavia porcellus, UniProt P41144)
Sequence (P41144 whole entry): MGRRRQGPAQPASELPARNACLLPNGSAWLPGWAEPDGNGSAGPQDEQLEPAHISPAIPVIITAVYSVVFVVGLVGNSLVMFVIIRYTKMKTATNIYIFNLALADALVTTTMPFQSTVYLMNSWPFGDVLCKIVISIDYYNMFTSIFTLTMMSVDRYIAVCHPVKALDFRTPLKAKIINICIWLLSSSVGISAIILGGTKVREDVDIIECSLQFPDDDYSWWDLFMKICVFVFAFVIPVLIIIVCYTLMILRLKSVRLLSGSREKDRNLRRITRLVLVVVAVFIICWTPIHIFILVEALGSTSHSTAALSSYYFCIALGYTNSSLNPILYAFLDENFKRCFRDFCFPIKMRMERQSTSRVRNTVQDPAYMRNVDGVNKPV
pKi: −log10 of the molar value.
Answer No if pKi is under 7, and Yes if it is 7 or more.

| MOL_SMILES | LABEL_VALUE |
| --- | --- |
| Oc1cccc2c1O[C@H]1[C@@H](O)CC[C@H]3CN(CC4CC4)CC[C@@]231 | Yes |
| Oc1cccc2c1O[C@H]1CCC[C@H]3CN(CC4CC4)CC[C@@]231 | Yes |
| CN1CC[C@]23c4cccc(O)c4O[C@H]2C(=O)CC[C@H]3C1 | No |

## Task Given the entry "Oc1cccc2c1O[C@H]1[C@H](O)CC[C@@H]3CN(CC4CC4)CC[C@@]231" , answer whether its pKi meets or surpasses 7.
## Result Yes

## Task Please indicate if the recorded pKi for "O=C1CC[C@H]2CN(CC3CC3)CC[C@@]23c2cccc(O)c2O[C@@H]13" meets or exceeds 7.
## Result Yes

## Task Say whether "COc1cccc2c1O[C@H]1C(=O)CC[C@H]3CN(CC4CC4)CC[C@@]231" shows pKi of 7 or more.
## Result No
